measured target: FRMPD2_2, Q68DX3
Sequence (Q68DX3 944-1038): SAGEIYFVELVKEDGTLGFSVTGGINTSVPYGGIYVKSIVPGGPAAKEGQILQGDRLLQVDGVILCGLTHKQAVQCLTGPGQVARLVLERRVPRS
experiment: holdup assay
Set-up: key: below the threshold = too weak to quantify, mostly under pKd 3.1 to 4
conditions: plain residues with an end cap or a label only (N-terminal biotin on a linker: ttds)
measurement kind: pKd

IYVPEAQTRL [DLGAP4, Q9Y2H0]
below the threshold
STLTIFETAL [ABCC4, O15439]
3.77
ERKLSSESQV [LRP4, O75096]
3.48
RSLEEEESQL [GRASP, Q7Z6J2]
below the threshold
TVASEKESVM [SLC1A5, Q15758]
below the threshold
GQDSREETQL [KCNT2, Q6UVM3]
below the threshold

Give measured pKd for every item shown.
1. SRPQRTQTQV [HPV67-E6, A4U7F2]
2. IDNDTESTAL [ARHGAP17, Q68EM7]
3. PKTPPTDTSV [KIR3DL3, Q8N743]

output:
[3.53, "below the threshold", "below the threshold"]
